FYI, the data here is from patent US12023308B2.

- Experimental protocol: in vivo
- Condition: male, 129S2/SvPasCrl, mouse
Property measured: bioavailability (%)
Value expressed in %; do not type the unit.

Note to self: bioavailability recorded for CC(C)[C@@H]1[C@H]2CC[C@H](C2)[C@H]1N (racemic) [BRD-4780] was 119

====

- System: MUC1-fs
- Experimental protocol: MUC1-fs immunofluorescence high-content imaging assay in P cells
- Format: cell-based, human
- Condition: read-out: EC50 for removal of MUC1-fs (IF); P cells treated 48 hours
Property measured: pEC50
Keep in mind that pEC50 stands for -log10 of concentration in molar terms.

Memo: CC(C)[C@@H]1[C@H]2CC[C@H](C2)[C@H]1N (racemic) , reported pEC50: 6.84
